Data credit: PubChem BioAssay (NCI)

tested on: U251 CNS
Labels: active, inactive

LINE_NOTATION: NC(N)=NC(N)=NCc1ccco1
CAT: inactive
--
LINE_NOTATION: CC(=O)N1c2ccc(-c3ccc(C(=O)O)cc3)cc2[C@H](Nc2ccc(Cl)cc2)C[C@@H]1C
CAT: inactive
--
LINE_NOTATION: O=C1/C(=C/c2cccc(F)c2)CN(C(=O)C(Cl)Cl)C/C1=C\c1cccc(F)c1
CAT: active
--
LINE_NOTATION: C[C@H](c1ccc(Cl)cc1[N+](=O)[O-])N1C(=O)c2cc(I)ccc2NC(=O)[C@H]1c1ccc(Cl)cc1
CAT: inactive
--
LINE_NOTATION: Nc1cc(N)c2nc(-c3ccccc3)c(Oc3ccc(Cl)c(Cl)c3)nc2c1
CAT: inactive
--
LINE_NOTATION: NC(N)=N/N=C/c1ccc(Br)cc1
CAT: inactive
--
LINE_NOTATION: NC(=S)N=Nc1c(O)[nH]c2ccccc12
CAT: inactive
--
LINE_NOTATION: CN1CCN(Cc2ccc(NC(=O)c3cncc(C#Cc4ncc5ccccn45)c3)cc2C(F)(F)F)CC1
CAT: inactive

====

Below, each entry is listed alongside its reported TGI.
tested on: KM20L2 colon; experiment: NCI tumour cell line growth inhibition, 48 h

COMPOUND: CCOC(=O)C1C(=O)c2cccc(OC)c2C2COC(=O)N12 (stereo not drawn)
TGI: > 100 µM
--
COMPOUND: COc1cc2c(cc1O)N=C[C@@H]1CCC(O)N1C2=O (mixture of isomers)
TGI: 24.9 µM
--
COMPOUND: CCOc1ccccc1NC(=O)C(=O)c1c(O)c2ccc(O)cc2oc1=O
TGI: > 100 µM
--
COMPOUND: CCN(CC)c1ccc(N=C2C=CC(=C(C#N)C#N)c3ccccc32)c(C)c1
TGI: 6.75 µM
--
COMPOUND: Cc1c(C(=O)Nc2ccc(Cl)cc2)nc(N)nc1-c1cccc(Cl)c1
TGI: > 100 µM
--
COMPOUND: N#CC12CC3(CCC1CCC1(C2)OCCO1)OCCO3 (stereo not drawn)
TGI: > 100 µM
--
COMPOUND: NNC(=O)N/N=C1/C(=O)N(c2ccc(Cl)c(Cl)c2)C(=O)C(=O)C1c1nc2ccccc2o1 (stereo not drawn)
TGI: > 100 µM
--
COMPOUND: CN(C)c1ccc(/C=c2\sc3nnc(Cc4ccccc4)n3c2=O)cc1
TGI: > 100 µM
--
COMPOUND: CC1CCC2[C@@H](C)COC3O[C@]4(C)CCC1C32OO4 (stereo partly drawn)
TGI: > 100 µM
--
COMPOUND: CC1=C(C(=O)NCc2ccccc2)C(c2ccccc2O)C(C(=O)NCc2ccccc2)=C(C)N1
TGI: 37 µM
--
COMPOUND: Nc1nc2c(ncn2CC(CO)CC(c2ccccc2)P(=O)(O)O)c(=O)[nH]1 (stereo not drawn)
TGI: > 100 µM
--
COMPOUND: COc1cc2c(cc1OC)C(=O)N1CCCC1C(=O)S2 (stereo not drawn)
TGI: > 100 µM
--
COMPOUND: CN/N=C(/CC(=O)c1sc(NNC(C)=O)nc1C)C(=O)Nc1ccc(OC)cc1OC
TGI: > 100 µM

====

tested on: SN12C renal; experiment: NCI tumour cell line growth inhibition, 48 h; in the data active = GI50 below about 0.43 µM; inactive = the rest
Where a SMILES comes first, the peptide text is derived from it. [ ]: non-standard residue; d: D form. The star is where a group is joined. ξ: configuration not given here. dIva = CC[C@@](C)(N)C(=O)O; Aib = CC(C)(N)C(=O)O; ξP = O=C(O)C1CCCN1; βAla = NCCC(=O)O; X5 = OCN*
Labels: 1.0 for active, 0.0 for inactive

MOLECULE: COC(=O)C1=C(O)C(C(=O)OC)[C@@]2(O)[C@@H](C(=O)OC)C(c3ccccc3Cl)C[C@@H]1[C@@H]2C(=O)OC (stereo partly specified)
CAT: 0.0
--
MOLECULE: NS(=O)(=O)c1ccc(N=Nc2c(=O)[nH]c3ccc4[nH]cccc4c23)cc1
CAT: 0.0
--
MOLECULE: Nc1nc(N)c(-c2ccc(Cl)cc2)c(/C=C/c2ccc([N+](=O)[O-])cc2)n1
CAT: 0.0
--
MOLECULE: NC(=S)N=Nc1c(O)[nH]c2ccccc12
CAT: 0.0
--
MOLECULE: CC[C@@](C)(NC(=O)[C@H](C)NC(=O)CCNC(=O)C(C)(C)NC(=O)[C@H](C)NC(=O)[C@@H]1CCCN1C(=O)[C@@](C)(CC)NC(=O)[C@H](Cc1ccccc1)NC(=O)C1CCCN1C(=O)C(C)(C)NC(=O)C1CCCN1C(=O)C(C)(C)NC(C)=O)C(=O)NCCC(=O)N[C@@H](CC(C)C)C(=O)NC(C)(C)C(=O)NCCC(=O)N[C@@H](CC(C)C)C(=O)NC(C)(C)C(=O)NC(C)(C)C(=O)N[C@@H](CC(C)C)C(=O)NCCC(=O)NCO (stereo partly specified) (Ac-[Aib][ξP][Aib][ξP]F[dIva]PA[Aib][βAla]A[dIva][βAla]L[Aib][βAla]L[Aib][Aib]L[βAla]-X5)
CAT: 1.0
--
MOLECULE: O=C1/C(=C/c2cccc(F)c2)CN(C(=O)C(Cl)Cl)C/C1=C\c1cccc(F)c1
CAT: 1.0
--
MOLECULE: CCCCCCCCCCCCCCCC(N)c1ccccc1 (stereo unspecified)
CAT: 0.0
--
MOLECULE: CNCC1CCn2c(c(C3=C(c4cn(C)c5ccccc45)C(=O)NC3=O)c3ccccc32)C1 (stereo unspecified)
CAT: 0.0
--
MOLECULE: CCC(=O)OCN1C(=O)C=CC1=O
CAT: 0.0
--
MOLECULE: Nc1nc(Cl)c2ncn(Cc3ccc(-c4ccc(CCl)cc4)cc3)c2n1
CAT: 0.0
--
MOLECULE: O=S1(=O)C=C(c2ccccc2)C(c2ccccc2)=C1
CAT: 0.0

====

Below, each entry is listed alongside its reported GI50.
tested on: HT29 colon; experiment: NCI tumour cell line growth inhibition, 48 h

LINE_NOTATION: CN(C)c1ccc(/C=c2\sc3nnc(Cc4ccccc4)n3c2=O)cc1
TARGET_OR_TEST_SYSTEM: HT29 colon
GI50: > 10 µM
//
LINE_NOTATION: NC(=S)N=Nc1c(O)[nH]c2ccccc12
TARGET_OR_TEST_SYSTEM: HT29 colon
GI50: 652 µM
//
LINE_NOTATION: O=C(N/N=C/c1cccc(O)c1)c1ccc(C(F)(F)F)nc1Nc1cccc(C(F)(F)F)c1
TARGET_OR_TEST_SYSTEM: HT29 colon
GI50: 3.47 µM
//
LINE_NOTATION: C[C@H](CCCOS(C)(=O)=O)[C@H]1CC[C@H]2[C@@H]3CC[C@@H]4C[C@H](OS(C)(=O)=O)CC[C@]4(C)[C@H]3CC[C@]12C
TARGET_OR_TEST_SYSTEM: HT29 colon
GI50: 1920 µM
//
LINE_NOTATION: CSc1nc(-c2cccc(NC(=O)CCl)c2)c(C#N)c(=O)n1C
TARGET_OR_TEST_SYSTEM: HT29 colon
GI50: 1.68 µM

====

test system: 786-0 renal; assay: NCI tumour cell line growth inhibition, 48 h
Where a SMILES comes first, the peptide text is derived from it. [ ]: non-standard residue; d: D form. The star is where a group is joined. ξ: configuration not given here. dIva = CC[C@@](C)(N)C(=O)O; Aib = CC(C)(N)C(=O)O; ξP = O=C(O)C1CCCN1; βAla = NCCC(=O)O; X5 = OCN*
Below, each entry is listed alongside its reported TGI.

COMPOUND: O[C@H]1[C@@H]2OC[C@@H](O)[C@H](OCc3ccccc3)[C@@](COCc3ccccc3)(O2)[C@@H]1OCc1ccccc1
TGI: 45.4 µM
--
COMPOUND: CC[C@@](C)(NC(=O)[C@H](C)NC(=O)CCNC(=O)C(C)(C)NC(=O)[C@H](C)NC(=O)[C@@H]1CCCN1C(=O)[C@@](C)(CC)NC(=O)[C@H](Cc1ccccc1)NC(=O)C1CCCN1C(=O)C(C)(C)NC(=O)C1CCCN1C(=O)C(C)(C)NC(C)=O)C(=O)NCCC(=O)N[C@@H](CC(C)C)C(=O)NC(C)(C)C(=O)NCCC(=O)N[C@@H](CC(C)C)C(=O)NC(C)(C)C(=O)NC(C)(C)C(=O)N[C@@H](CC(C)C)C(=O)NCCC(=O)NCO (some centres not stated) (Ac-[Aib][ξP][Aib][ξP]F[dIva]PA[Aib][βAla]A[dIva][βAla]L[Aib][βAla]L[Aib][Aib]L[βAla]-X5)
TGI: 0.414 µM
--
COMPOUND: N#CC12CC3(CCC1CCC1(C2)OCCO1)OCCO3 (configuration not stated)
TGI: > 100 µM
--
COMPOUND: NCCSc1nc(N)c2ncn(C3OC(CO)C(O)C3O)c2n1 (configuration not stated)
TGI: > 100 µM
--
COMPOUND: CCN1C(=O)N(CC)C2C1NN=c1s/c(=C\c3cnc(C)n3C)c(=O)n12 (configuration not stated)
TGI: > 100 µM
--
COMPOUND: N#CCCn1c(CCC(=O)Nc2ccc(Cl)cc2Cl)n[nH]c1=S
TGI: > 100 µM
--
COMPOUND: O=S1Cc2ccccc2CSS1 (configuration not stated)
TGI: 29.1 µM
--
COMPOUND: Cc1ccc2c(c1)C/C(=C\c1ccccc1C(=O)O)C2=O
TGI: > 100 µM
--
COMPOUND: Cc1ccc2nnc(NS(=O)(=O)c3cc(C)c(Cl)cc3S)n2n1
TGI: > 100 µM
--
COMPOUND: CCCCn1c2c(n(CCCC)c1=[Se])-c1c(n(CCCC)c(=[Se])n1CCCC)S[Se][Se]S2
TGI: > 72.6 µM
--
COMPOUND: COC(=O)/C=C/N1CC1
TGI: > 10 µM
--
COMPOUND: O=S1(=O)C=C(c2ccccc2)C(c2ccccc2)=C1
TGI: 2.82 µM
--
COMPOUND: O=C(O)CCCN=C(C(=NCCCC(=O)O)c1ccccc1)c1ccccc1
TGI: > 100 µM
--
COMPOUND: O=C(Nc1ccc(N2CCNCC2)cn1)c1[nH]ncc1Nc1ncnc2sc3c(c12)CCC3
TGI: 2.98 µM
--
COMPOUND: CC1(C)N=C(N)N=C(N)N1c1ccc(CCC(=O)Nc2cccc(S(=O)(=O)F)c2)cc1
TGI: > 100 µM
--
COMPOUND: CC(=O)c1cccc(NC(=O)/C(=N\NC(=S)NN)C2C(=O)Nc3ccccc3S2=O)c1 (configuration not stated)
TGI: > 100 µM
--
COMPOUND: CC(C)Cn1cnc2c(SCc3ccccn3)nc(N)nc21
TGI: > 100 µM
--
COMPOUND: CCCC(CCC)C(=O)O
TGI: > 20000 µM
--
COMPOUND: Cn1c2c(c3c(=O)[nH]ncc31)CCCc1ccccc1-2
TGI: > 100 µM
--
COMPOUND: CN1CCN(Cc2ccc(NC(=O)c3cncc(C#Cc4ncc5ccccn45)c3)cc2C(F)(F)F)CC1
TGI: 6.4 µM
--
COMPOUND: CCN1CCC(O)(/C=C/c2ccc(Cl)cc2)C(C(=O)/C=C/c2ccc(Cl)cc2)C1 (configuration not stated)
TGI: 43.3 µM
--
COMPOUND: COc1ccc(-c2cc3c(N)ncnc3o2)cc1
TGI: > 25 µM
--
COMPOUND: Nc1cc(N)c2nc(-c3ccccc3)c(Oc3ccc(Cl)c(Cl)c3)nc2c1
TGI: 41.2 µM
--
COMPOUND: Cc1cn(C2CC(O)C(Cn3nncc3Cn3ccc(=O)[nH]c3=O)O2)c(=O)[nH]c1=O (configuration not stated)
TGI: > 100 µM
--
COMPOUND: O=C1C=C(OCC=C(Cl)Cl)C(=O)c2ccccc21
TGI: > 100 µM
--
COMPOUND: CN(C)c1ccc(/C=c2\sc3nnc(Cc4ccccc4)n3c2=O)cc1
TGI: > 100 µM
--
COMPOUND: O=C1CC2OCC=C3CN4CCC56c7ccccc7N1C5C2C3CC46 (configuration not stated) (tested in a mixture with another compound)
TGI: > 50 µg/mL
--
COMPOUND: CCOC(=O)c1c(CN2CCOCC2)n(Cc2ccccc2)c2c1cc(O)c1nc(C)c(C)nc12
TGI: 68.7 µM
--
COMPOUND: O=C(OCc1ccccc1)c1ccccc1-c1c2ccc(=O)cc-2oc2cc(OCc3ccccc3)ccc12
TGI: 71 µM
--
COMPOUND: COC(=O)C(C(=O)C(=O)Nc1ccc(N)cc1[N+](=O)[O-])c1nc2ccc(Cl)cc2[nH]c1=O (configuration not stated)
TGI: > 100 µM
--
COMPOUND: CCCNC(=O)c1cc(NC(=O)c2cc(NC(=O)CCS(=O)(=O)OC)cn2C)cn1C
TGI: > 71.7 µM
--
COMPOUND: Cc1ccc(SSCCCCS(=O)O)cc1
TGI: > 100 µM
--
COMPOUND: COC(=O)C1=C(O)C(C(=O)OC)[C@@]2(O)[C@@H](C(=O)OC)C(c3ccccc3Cl)C[C@@H]1[C@@H]2C(=O)OC (some centres not stated)
TGI: 19.5 µM
--
COMPOUND: C=[N+](CNC(=O)CNC(=O)C(Cc1ccccc1)NC(=O)OC(C)(C)C)C(=O)CNC(=O)C(Cc1ccccc1)NC(=O)OC(C)(C)C (configuration not stated)
TGI: > 100 µM
--
COMPOUND: Cc1cccc2c(=O)c3c(O)cc4c(c3n(C)c12)C=CC(C)(C)O4
TGI: > 100 µM
--
COMPOUND: Nc1ncnc2c1ncn2C1OC(C(=O)OCCO)C(O)C1O (configuration not stated)
TGI: > 100 µM
--
COMPOUND: Cc1ccc(NCc2nnc3c(-c4ccccc4)nc4ccccc4n23)cc1
TGI: > 100 µM
